Test: Pharmacokinetic properties in a mouse
Conditions: plasma, po, 10 mg/kg
VALUE TYPE: AUC(0-inf) (ng·h/mL)

O=C1C2=C(CCN(Cc3cccc(F)c3)C2)N2CCN=C2N1Cc1ccc(C(F)(F)F)cc1 | 823

(I) [2H]c1c([2H])c([2H])c(C([2H])([2H])N2CCC3=C(C2)C(=O)N(Cc2ccc(C(F)(F)F)cc2)C2=NCCN23)c([2H])c1[2H]
(II) C#Cc1cccc(CN2CCC3=C(C2)C(=O)N(Cc2ccc(Cl)cc2)C2=NCCN23)c1
Q) Which record would sort first by descending AUC(0-inf), I or II ? Refer to your chosen item by its label in the answer.
A) I
(I: 604 ng·h/mL, II: 255 ng·h/mL)

----------
Assay: Pharmacokinetic properties in a mouse
Conditions: i.v. 2 mg/kg and oral 10 mg/kg
VALUE TYPE: Oral Bioavailability (% F)

# count of solved cases: 2
O=C1C2=C(CCN(Cc3cccc(F)c3)C2)N2CCN=C2N1Cc1ccc(C(F)(F)F)cc1 [Compound 18] | 27
Cc1ccccc1CN1C(=O)C2=C(CCN(Cc3ccccc3)C2)N2CCN=C12 [TIC10, reference compound] | 1.2

(A) C#Cc1cccc(CN2CCC3=C(C2)C(=O)N(Cc2ccc(Cl)cc2)C2=NCCN23)c1 [Compound 4]
(B) [2H]c1c([2H])c([2H])c(C([2H])([2H])N2CCC3=C(C2)C(=O)N(Cc2ccc(C(F)(F)F)cc2)C2=NCCN23)c([2H])c1[2H] [Compound 19]
Q) Please indicate which has the smaller reported Oral Bioavailability (% F): A , or B . Refer to your chosen item by its label in the answer.
A) A
(A: 33 % F, B: 60 % F)

----------
Tested on: MDA-MB-231 (MDA 231, human breast adenocarcinoma)
Experiment: CCK-8 cell viability assay on MDA-MB-231 cells
Type: cell-based
Details: MDA-MB-231, 48 h, read-out: IC50 (uM, MDA 231)
VALUE TYPE: IC50 (µM)
Numbers only; they are read as µM.

Q) Which IC50 is reported for this compound? Cc1ccccc1CN1C(=O)C2=C(CCN(Cc3ccccc3)C2)N2CCN=C12 [TIC10, reference compound]
A) 3
